Listing of recorded pIC50 by entry.
molecular target: DRB1*0901 (Homo sapiens, UniProt P01903+P01911, A100R/A103E/D57H/D86V/F55Y/F60I/F76Y/I96F/K127E/L162R/M171V/P40D/Q125H/Q99R/R33Q/R42F/S133A/S66N/T210M/V115G/W38K/Y107V/Y59G/Y89S); test: biochemical; format: binding
pIC50: −log10 of the molar value. No end group written: not given here.

Observe how each entry below is paired with its result.
Biosequence | pIC50
LLQLKCPPILLTSNI [Peptide 89.0091] | < 4.70
LLEFIDDSMENSIQA [Peptide 90.0077] | 5.18

Indicate its recorded pIC50; the sequence in question is FAGIVTKLPTANNTT [Peptide 89.0175] < 4.70

Indicate its recorded pIC50; the sequence in question is SQLLNIPETHMVIEP [Peptide 89.0102] < 4.70

Indicate its recorded pIC50; the sequence in question is ACSWGMVMLMLVRFK [Peptide 89.0043] 4.98

Indicate its recorded pIC50; the sequence in question is EISFAGIVTKLPTAN [Peptide 89.0174] < 4.70

Indicate its recorded pIC50; the sequence in question is LIQLKCPPILLTTNI [Peptide 89.0038] < 4.70

Value source: patent US9340577B2
